Task for the reader: assign each of the following binders its reported cAMP EC50.
TESTED_ON: T1, wild-type human PTH/PTHrP receptor (hP1R-WT) (human, UniProt Q03431 27-593)
T1 sequence (looked up): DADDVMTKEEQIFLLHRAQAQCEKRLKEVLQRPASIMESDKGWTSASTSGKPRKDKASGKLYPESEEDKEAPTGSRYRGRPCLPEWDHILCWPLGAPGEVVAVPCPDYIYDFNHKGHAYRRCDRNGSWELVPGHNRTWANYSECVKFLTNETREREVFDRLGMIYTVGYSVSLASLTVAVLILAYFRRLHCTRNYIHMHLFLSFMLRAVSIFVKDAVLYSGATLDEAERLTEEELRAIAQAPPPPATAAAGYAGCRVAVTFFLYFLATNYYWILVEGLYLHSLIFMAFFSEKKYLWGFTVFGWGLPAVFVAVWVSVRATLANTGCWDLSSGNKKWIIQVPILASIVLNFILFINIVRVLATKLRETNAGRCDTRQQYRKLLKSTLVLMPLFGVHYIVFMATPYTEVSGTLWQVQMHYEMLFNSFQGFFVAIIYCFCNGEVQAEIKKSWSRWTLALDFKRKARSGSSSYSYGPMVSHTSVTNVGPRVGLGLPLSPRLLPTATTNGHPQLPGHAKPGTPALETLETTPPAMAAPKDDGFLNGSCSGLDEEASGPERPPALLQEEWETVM
PROTOCOL_DETAILS: cell-based or functional assay
Square brackets hold non-standard residues; d marks the D form. Ends that are not written are not given here. hArg = N=C(N)NCCCC[C@H](N)C(=O)O; Aib = CC(C)(N)C(=O)O
Could you kindly put the unit after your number?

Please look up its cAMP EC50: AVAEIQLMHQ[hArg][Aib]KW-NH2 (N-terminus assumed; SMILES CC[C@H](C)[C@H](NC(=O)[C@H](CCC(=O)O)NC(=O)[C@H](C)NC(=O)[C@@H](NC(=O)[C@H](C)N)C(C)C)C(=O)N[C@@H](CCC(N)=O)C(=O)N[C@@H](CC(C)C)C(=O)N[C@@H](CCSC)C(=O)N[C@@H](Cc1c[nH]cn1)C(=O)N[C@@H](CCC(N)=O)C(=O)N[C@@H](CCCCNC(=N)N)C(=O)NC(C)(C)C(=O)N[C@@H](CCCCN)C(=O)N[C@@H](Cc1c[nH]c2ccccc12)C(N)=O, Aib scan of [M]PTH(1-14); Aib replaces the Ala^12 of [M]; also called 633 Aib-12) [[Aib^12,M]PTH(1-14)]
0.44 µM

Please look up its cAMP EC50: [Aib]V[Aib]EIQLMHQ[hArg]-NH2 (N-terminus assumed; SMILES CC[C@H](C)[C@H](NC(=O)[C@H](CCC(=O)O)NC(=O)C(C)(C)NC(=O)[C@@H](NC(=O)C(C)(C)N)C(C)C)C(=O)N[C@@H](CCC(N)=O)C(=O)N[C@@H](CC(C)C)C(=O)N[C@@H](CCSC)C(=O)N[C@@H](Cc1c[nH]cn1)C(=O)N[C@@H](CCC(N)=O)C(=O)N[C@@H](CCCCNC(=N)N)C(N)=O, also called 682 [Aib^1,3, M]PTH (1-11); [Aib^1,3,Gln^10,Har^11]PTH(1-11)) [[Aib^1,3,M]PTH(1-11)]
0.004 µM

Please look up its cAMP EC50: [Aib]V[Aib]EIQLMHQ-NH2 (N-terminus assumed; SMILES CC[C@H](C)[C@H](NC(=O)[C@H](CCC(=O)O)NC(=O)C(C)(C)NC(=O)[C@@H](NC(=O)C(C)(C)N)C(C)C)C(=O)N[C@@H](CCC(N)=O)C(=O)N[C@@H](CC(C)C)C(=O)N[C@@H](CCSC)C(=O)N[C@@H](Cc1c[nH]cn1)C(=O)N[C@@H](CCC(N)=O)C(N)=O, also called 684 [Aib^1,3, M]PTH (1-10); [Aib^1,3,M]PTH(1-10)) [[Aib^1,3,Gln^10]PTH(1-10)]
16 µM

Please look up its cAMP EC50: AVAEIQL[Aib]HQ[hArg]AKW-NH2 (N-terminus assumed; SMILES CC[C@H](C)[C@H](NC(=O)[C@H](CCC(=O)O)NC(=O)[C@H](C)NC(=O)[C@@H](NC(=O)[C@H](C)N)C(C)C)C(=O)N[C@@H](CCC(N)=O)C(=O)N[C@@H](CC(C)C)C(=O)NC(C)(C)C(=O)N[C@@H](Cc1c[nH]cn1)C(=O)N[C@@H](CCC(N)=O)C(=O)N[C@@H](CCCCNC(=N)N)C(=O)N[C@@H](C)C(=O)N[C@@H](CCCCN)C(=O)N[C@@H](Cc1c[nH]c2ccccc12)C(N)=O, Aib scan of [M]PTH(1-14); also called 629 Aib-8) [[Aib^8,M]PTH(1-14)]
1500 µM
